Hello, the source for this data is ChEMBL document CHEMBL1134123, in case you need it.

Target: Gonadotropin-releasing hormone receptor (Homo sapiens, UniProt P30968)
Sequence (P30968 whole entry): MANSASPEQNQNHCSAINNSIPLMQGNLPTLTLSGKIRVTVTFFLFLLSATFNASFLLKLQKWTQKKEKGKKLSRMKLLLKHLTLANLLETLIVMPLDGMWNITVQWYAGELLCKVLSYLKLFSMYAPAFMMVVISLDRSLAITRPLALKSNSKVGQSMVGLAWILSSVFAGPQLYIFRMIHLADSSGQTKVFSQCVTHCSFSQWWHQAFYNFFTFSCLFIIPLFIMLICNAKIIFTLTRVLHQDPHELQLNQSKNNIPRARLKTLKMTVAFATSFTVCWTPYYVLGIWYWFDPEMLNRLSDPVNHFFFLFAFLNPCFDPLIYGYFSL
Experiment: Inhibition of [125I]buserelin binding to human Gonadotropin-releasing hormone receptor.
Each entry below carries its recorded IC50.
Lab book: enter the figure in nM, no units written.

Examples with answers:
ITEM_SMILES: CCN(C(=O)c1ccc2[nH]c(-c3cc(C)cc(C)c3)c(CCNCCCCc3ccncc3)c2c1)C1CCCCCCC1
VALUE_MEASURED: 1.9
//
ITEM_SMILES: Cc1cc(C)cc(-c2[nH]c3ccc(C(=O)NC(C)C)cc3c2CCNCCCCc2cccnc2)c1
VALUE_MEASURED: 55
//
ITEM_SMILES: Cc1cc(C)cc(-c2[nH]c3ccc(C(=O)N(CC(F)(F)F)CC(F)(F)F)cc3c2CCNCCCCc2ccncc2)c1
VALUE_MEASURED: 36

Could you now look at the following compound, please?
Write down IC50 measured for item "Cc1cc(C)cc(-c2[nH]c3ccc(C(C)(C)C(N)=O)cc3c2CCNCCCCc2cccnc2)c1"
32

###

Target: UniProt P30968
Assay: Inhibition of [125I]buserelin binding to human Gonadotropin-releasing hormone receptor.
Each entry below carries its recorded pIC50.
The meaning of pIC50 here: minus log10 of the concentration in molar units.

Write down pIC50 measured for item "CCN(CCO)C(=O)c1ccc2[nH]c(-c3cc(C)cc(C)c3)c(CCNCCCCc3ccncc3)c2c1"
7.44

Write down pIC50 measured for item "Cc1cc(C)cc(-c2[nH]c3ccc(C(=O)N(CC(C)C)CC(C)C)cc3c2CCNCCCCc2ccncc2)c1"
8.15

Write down pIC50 measured for item "Cc1cc(C)cc(-c2[nH]c3ccc(C(=O)N4C5CCC4CC5)cc3c2CCNCCCCc2ccncc2)c1"
7.49

###

Target: UniProt P30969
Sequence (P30969 whole entry): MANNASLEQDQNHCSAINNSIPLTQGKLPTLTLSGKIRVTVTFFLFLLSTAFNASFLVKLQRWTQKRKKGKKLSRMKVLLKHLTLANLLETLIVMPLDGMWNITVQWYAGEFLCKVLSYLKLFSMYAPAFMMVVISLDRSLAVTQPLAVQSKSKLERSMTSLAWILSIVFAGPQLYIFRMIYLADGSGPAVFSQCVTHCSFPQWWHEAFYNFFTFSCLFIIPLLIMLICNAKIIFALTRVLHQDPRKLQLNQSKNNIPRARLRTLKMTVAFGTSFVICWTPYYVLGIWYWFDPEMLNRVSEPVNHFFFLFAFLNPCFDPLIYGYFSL
Experiment: Inhibition of GnRH-stimulated luteinizing hormone (LH) release in rat pituitary cells
Type: functional, cell-based, Pituitary gland cell
ENDPOINT_NAME: pIC50
The meaning of pIC50 here: minus log10 of the concentration in molar units.

Examples with answers:
COMPOUND: CCN(CCO)C(=O)c1ccc2[nH]c(-c3cc(C)cc(C)c3)c(CCNCCCCc3cccnc3)c2c1
pIC50: 5.92

COMPOUND: CCCCN(CCCC)C(=O)c1ccc2[nH]c(-c3cc(C)cc(C)c3)c(CCNCCCCc3ccncc3)c2c1
pIC50: 6.62

Write down pIC50 measured for item "Cc1cc(C)cc(-c2[nH]c3ccc(C(C)(C)C(=O)N(CC(C)C)CC(C)C)cc3c2CCNCCCCc2cccnc2)c1"
6.40

Write down pIC50 measured for item CCC(C)(C(=O)N1C2CCC1CC2)c1ccc2[nH]c(-c3cc(C)cc(C)c3)c(CCNCCCCc3ccncc3)c2c1 (configuration not stated)
6.62

Write down pIC50 measured for item "Cc1cc(C)cc(-c2[nH]c3ccc(C(=O)N4CCOCC4)cc3c2CCNCCCCc2ccncc2)c1"
5.85

Write down pIC50 measured for item "Cc1cc(C)cc(-c2[nH]c3ccc(C(=O)N(CC(C)C)CC(C)C)cc3c2CCNCCCCc2cccnc2)c1"
6.82

Write down pIC50 measured for item "CCN(CC)C(=O)C(C)(C)c1ccc2[nH]c(-c3cc(C)cc(C)c3)c(CCNCCCCc3ccncc3)c2c1"
6.68

Write down pIC50 measured for item "Cc1cc(C)cc(-c2[nH]c3ccc(C(C)(C)C(=O)N4CCCCC4)cc3c2CCNCCCCc2ccncc2)c1"
5.92

Write down pIC50 measured for item "Cc1cc(C)cc(-c2[nH]c3ccc(C(C)(C)C(=O)N4C5CCC4CC5)cc3c2CCNCCCCc2cccnc2)c1"
7.14

Write down pIC50 measured for item "Cc1cc(C)cc(-c2[nH]c3ccc(C(C)(C)C(=O)N(CC(C)C)CC(C)C)cc3c2CCNCCCCc2ccncc2)c1"
6.85

Write down pIC50 measured for item "Cc1cc(C)cc(-c2[nH]c3ccc(C(=O)N(C)C)cc3c2CCNCCCCc2cccnc2)c1"
5.59

Write down pIC50 measured for item "Cc1cc(C)cc(-c2[nH]c3ccc(C(C)(C)C(=O)N(C)C)cc3c2CCNCCCCc2ccncc2)c1"
6.03

Write down pIC50 measured for item "Cc1cc(C)cc(-c2[nH]c3ccc(C(C)(C)C(=O)N4C5CCC4CC5)cc3c2CCN(C)CCCCc2ccncc2)c1"
7.15

Write down pIC50 measured for item "CCN(C(=O)c1ccc2[nH]c(-c3cc(C)cc(C)c3)c(CCNCCCCc3ccncc3)c2c1)C1CCCCCCC1"
7.09

Write down pIC50 measured for item "CCC(CC)(C(=O)N1C2CCC1CC2)c1ccc2[nH]c(-c3cc(C)cc(C)c3)c(CCNCCCCc3ccncc3)c2c1"
6.59

Write down pIC50 measured for item "Cc1cc(C)cc(-c2[nH]c3ccc(C(=O)N(CC(C)C)CC(C)C)cc3c2CCNCCCCc2ccncc2)c1"
6.42
